Origin of measurements: paper PMC4336329

# TESTED SYSTEM: human ether-à-go-go-related gene (hERG) potassium channel (human, UniProt Q12809)
# Sequence (Q12809 whole entry, looked up): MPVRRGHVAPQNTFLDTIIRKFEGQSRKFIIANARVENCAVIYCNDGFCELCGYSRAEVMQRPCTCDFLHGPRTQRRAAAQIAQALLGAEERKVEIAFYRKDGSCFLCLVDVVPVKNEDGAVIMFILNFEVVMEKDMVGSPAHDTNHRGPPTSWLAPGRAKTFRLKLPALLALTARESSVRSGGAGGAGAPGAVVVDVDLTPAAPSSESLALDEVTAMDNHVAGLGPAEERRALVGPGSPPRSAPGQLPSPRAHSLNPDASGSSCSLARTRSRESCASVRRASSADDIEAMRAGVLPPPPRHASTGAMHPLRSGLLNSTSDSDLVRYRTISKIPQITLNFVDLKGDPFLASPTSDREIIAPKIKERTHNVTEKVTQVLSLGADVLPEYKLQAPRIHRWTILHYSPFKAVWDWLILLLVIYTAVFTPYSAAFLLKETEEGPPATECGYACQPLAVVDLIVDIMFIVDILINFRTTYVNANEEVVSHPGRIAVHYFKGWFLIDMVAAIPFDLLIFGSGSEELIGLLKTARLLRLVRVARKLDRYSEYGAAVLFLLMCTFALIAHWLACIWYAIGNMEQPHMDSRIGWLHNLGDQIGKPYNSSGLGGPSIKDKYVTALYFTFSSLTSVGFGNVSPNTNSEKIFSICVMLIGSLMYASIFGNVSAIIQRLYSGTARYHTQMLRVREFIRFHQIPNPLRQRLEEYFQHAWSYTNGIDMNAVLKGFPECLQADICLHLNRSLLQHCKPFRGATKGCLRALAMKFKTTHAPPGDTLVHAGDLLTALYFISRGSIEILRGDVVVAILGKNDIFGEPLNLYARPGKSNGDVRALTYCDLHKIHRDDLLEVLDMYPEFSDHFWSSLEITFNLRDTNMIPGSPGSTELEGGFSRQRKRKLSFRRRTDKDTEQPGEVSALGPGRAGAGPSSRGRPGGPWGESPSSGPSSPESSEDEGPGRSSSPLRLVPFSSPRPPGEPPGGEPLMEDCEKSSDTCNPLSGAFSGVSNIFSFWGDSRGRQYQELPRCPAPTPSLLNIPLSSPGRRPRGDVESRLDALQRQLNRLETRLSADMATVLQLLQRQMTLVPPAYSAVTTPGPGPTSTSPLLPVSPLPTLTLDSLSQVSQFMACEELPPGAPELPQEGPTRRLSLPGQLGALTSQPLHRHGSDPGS
# ASSAY PROCEDURE: primary screen, population patch clamp on CHO cells stably expressing hERG; higher = less effect of the substance
The campaign covered roughly 310,000 compounds. About 2,200 (0.71%) showed an effect of 50% or more. Effects have a minus sign here. Shown is part of a subset that was picked to be rich in strong results.
REPORTED ENDPOINT: hERG current change (%, negative = inhibition) at 1uM (%)
The figure you give is taken to be in %; do not add the unit.

Worked cases, answers included:
ENTRY SMILES | ASSAY VALUE
CCOCCCNC(=S)Nc1ccc2nc(N3CCOCC3)cc(C)c2c1 | 9.64
CCCCN(C)C(=S)Nc1ccc2nc(N3CCN(CC)CC3)cc(C)c2c1 | -46.4
CCOCCCNC(=S)Nc1ccc2nc(N3CCN(CC)CC3)cc(C)c2c1 | 10.7
Cc1cc(N2CCCC2)nc2ccc(NC(=S)NCCCOC(C)C)cc12 | -78.6

Continue with the next molecule.
Data request: Given the molecule CCN1CCN(c2cc(C)c3cc(NC(=S)N(C)Cc4ccccc4)ccc3n2)CC1 , what is its reported hERG current change (%, negative = inhibition) at 1uM?
Data returned: -56.7
